# method description: in vitro
# measurement parameters: ng108-15 cells
recorded endpoint: viability at 70 h, 1000 µM (%)
One number for each entry, in %.

Ask | Name the recorded viability at 70 h, 1000 µM for CC(=O)OCC(=O)N[C@@H]1C(OC(C)=O)O[C@H](COC(C)=O)[C@@H](OC(C)=O)[C@@H]1OC(C)=O (stereo partly shown) [ManNGcPA, N-glycolylmannosamine pentaacetate] .
Reply | 76
